SYSTEM_TESTED: HLA-A*02:01 (Homo sapiens, UniProt P04439, D140Y/D185E/D98H/E176V/E277Q/G131W/G231S/I119V/I121R/I166T/I218V/L300P/L318F/N151K/N90K/P208A/P217A/Q86G/Q94H/R138H/R169H/T345S)
PROTOCOL_NOTES: MHC binding assay (UV-ligand exchange, beta2m ELISA)
CONDITION_LABEL: binding to HLA-A*02:01 ranged by peptide exchange yield (UV-ligand exchange, β2m ELISA)
Description: Candidate peptides for T cell based therapies according to the present invention were further tested for their MHC binding capacity (affinity). The individual peptide-MHC complexes were produced by UV-ligand exchange, where a UV-sensitive peptide is cleaved upon UV-irradiation, and exchanged with the peptide of interest as analyzed. Only peptide candidates that can effectively bind and stabilize the peptide-receptive MHC molecules prevent dissociation of the MHC complexes. […]
READOUT_LABEL: Peptide exchange

Known Peptide exchange results, listed for orientation:
453 (KLLEATSAV; listed as Homo sapiens) [compound 453]
“++” (≥20% = ++)
128 (YLFDDPLSAV; listed as Homo sapiens) [compound 128]
“++” (≥20% = ++)
84 (VTFGEKLLGV; listed as Homo sapiens) [compound 84]
“++” (≥20% = ++)
596 (ALLDQTKTLAESAL; listed as Homo sapiens) [compound 596]
“+++” (≥50 = +++)
82 (FLSSVTYNL; listed as Homo sapiens) [compound 82]
“+++” (≥50 = +++)

Return reported Peptide exchange values for all items listed beneath this line.
1. 215 (QLINHLHAV; listed as Homo sapiens) [compound 215]
2. 614 (LLLPDQPPYHL; listed as Homo sapiens) [compound 614]
3. 295 (VLDRESPNV; listed as Homo sapiens) [compound 295]

## Output
["“+++” (≥50 = +++)", "“+++” (≥50 = +++)", "“+++” (≥50 = +++)"]

* * *

SYSTEM_TESTED: HLA-A*02:01 (Homo sapiens, UniProt P04439, D140Y/D185E/D98H/E176V/E277Q/G131W/G231S/I119V/I121R/I166T/I218V/L300P/L318F/N151K/N90K/P208A/P217A/Q86G/Q94H/R138H/R169H/T345S)
PROTOCOL_NOTES: MHC binding assay (UV-ligand exchange, beta2m ELISA)
CONDITION_LABEL: binding to HLA-A*02:01 ranged by peptide exchange yield (UV-ligand exchange, β2m ELISA)
READOUT_LABEL: Peptide exchange

Known Peptide exchange results, listed for orientation:
187 (RQISIRGIVGV; listed as Homo sapiens) [compound 187]
“+++” (≥50 = +++)
479 (SLFGNSGILENV; listed as Homo sapiens) [compound 479]
“+++” (≥50 = +++)
137 (TLVLTLPTV; listed as Homo sapiens) [compound 137]
“++++” (≥75% = ++++)
588 (SLLPLSHLV; listed as Homo sapiens) [compound 588]
“+++” (≥50 = +++)
126 (VLAYFLPEA; listed as Homo sapiens) [compound 126]
“++++” (≥75% = ++++)
61 (FLQGYQLHL; listed as Homo sapiens) [compound 61]
“++++” (≥75% = ++++)
170 (RLQETLSAA; listed as Homo sapiens) [compound 170]
“+++” (≥50 = +++)
438 (KLLPLAGLYL; listed as Homo sapiens) [compound 438]
“++++” (≥75% = ++++)
60 (SLTIDGIYYV; listed as Homo sapiens) [compound 60]
“++++” (≥75% = ++++)
608 (SLLSVSHAL; listed as Homo sapiens) [compound 608]
“+++” (≥50 = +++)

Return reported Peptide exchange values for all items listed beneath this line.
1. 363 (KVLDVSDLESV; listed as Homo sapiens) [compound 363]
2. 2 (SLLEADPFL; listed as Homo sapiens) [compound 2]
3. 349 (SLTEYLQNV; listed as Homo sapiens) [compound 349]
4. 220 (LLQKFVPEI; listed as Homo sapiens) [compound 220]

## Output
1. “++” (≥20% = ++)
2. “+++” (≥50 = +++)
3. “++++” (≥75% = ++++)
4. “++” (≥20% = ++)

* * *

SYSTEM_TESTED: HLA-A*02:01 (Homo sapiens, UniProt P04439, D140Y/D185E/D98H/E176V/E277Q/G131W/G231S/I119V/I121R/I166T/I218V/L300P/L318F/N151K/N90K/P208A/P217A/Q86G/Q94H/R138H/R169H/T345S)
PROTOCOL_NOTES: MHC binding assay (UV-ligand exchange, beta2m ELISA)
CONDITION_LABEL: binding to HLA-A*02:01 ranged by peptide exchange yield (UV-ligand exchange, β2m ELISA)
READOUT_LABEL: Peptide exchange

461 (VMFRTPLASV; listed as Homo sapiens) [compound 461]
“++” (≥20% = ++)
555 (YVLEGLKSV; listed as Homo sapiens) [compound 555]
“+++” (≥50 = +++)
471 (YLYNNMIAKI; listed as Homo sapiens) [compound 471]
“+++” (≥50 = +++)
284 (ILLSQTTGV; listed as Homo sapiens) [compound 284]
“+++” (≥50 = +++)
210 (LLLNAVLTV; listed as Homo sapiens) [compound 210]
“++” (≥20% = ++)
538 (LLLAHIIAL; listed as Homo sapiens) [compound 538]
“++” (≥20% = ++)
447 (QLVPALAKV; listed as Homo sapiens) [compound 447]
“++” (≥20% = ++)

Proceed to the following item.
## Input Indicate its recorded Peptide exchange; the substance in question is 32 (KLDDLTQDLTV; listed as Homo sapiens) [compound 32]
## Output “++” (≥20% = ++)

* * *

SYSTEM_TESTED: HLA-A*02:01 (Homo sapiens, UniProt P04439, D140Y/D185E/D98H/E176V/E277Q/G131W/G231S/I119V/I121R/I166T/I218V/L300P/L318F/N151K/N90K/P208A/P217A/Q86G/Q94H/R138H/R169H/T345S)
PROTOCOL_NOTES: MHC binding assay (UV-ligand exchange, beta2m ELISA)
CONDITION_LABEL: binding to HLA-A*02:01 ranged by peptide exchange yield (UV-ligand exchange, β2m ELISA)
From the text: Candidate peptides for T cell based therapies according to the present invention were further tested for their MHC binding capacity (affinity). The individual peptide-MHC complexes were produced by UV-ligand exchange, where a UV-sensitive peptide is cleaved upon UV-irradiation, and exchanged with the peptide of interest as analyzed. Only peptide candidates that can effectively bind and stabilize the peptide-receptive MHC molecules prevent dissociation of the MHC complexes. […]
READOUT_LABEL: Peptide exchange

227 (ALMNTLLYL; listed as Homo sapiens) [compound 227]
“++” (≥20% = ++)
261 (YVLEFLEEI; listed as Homo sapiens) [compound 261]
“++” (≥20% = ++)
319 (SLEPQIQPV; listed as Homo sapiens) [compound 319]
“++” (≥20% = ++)
376 (AMFESSQNVLL; listed as Homo sapiens) [compound 376]
“++” (≥20% = ++)

* * *

SYSTEM_TESTED: HLA-A*02:01 (Homo sapiens, UniProt P04439, D140Y/D185E/D98H/E176V/E277Q/G131W/G231S/I119V/I121R/I166T/I218V/L300P/L318F/N151K/N90K/P208A/P217A/Q86G/Q94H/R138H/R169H/T345S)
PROTOCOL_NOTES: MHC binding assay (UV-ligand exchange, beta2m ELISA)
CONDITION_LABEL: binding to HLA-A*02:01 ranged by peptide exchange yield (UV-ligand exchange, β2m ELISA)
READOUT_LABEL: Peptide exchange

Known Peptide exchange results, listed for orientation:
160 (FLFDEEIEQI; listed as Homo sapiens) [compound 160]
“+++” (≥50 = +++)
57 (TLAELQPPVQL; listed as Homo sapiens) [compound 57]
“+++” (≥50 = +++)
36 (YVLEDLEVTV; listed as Homo sapiens) [compound 36]
“++” (≥20% = ++)
225 (SLLKVLPAL; listed as Homo sapiens) [compound 225]
“+++” (≥50 = +++)
245 (SMIDDLLGV; listed as Homo sapiens) [compound 245]
“+++” (≥50 = +++)
194 (ALPLFVITV; listed as Homo sapiens) [compound 194]
“+++” (≥50 = +++)
150 (RLWEEGEELEL; listed as Homo sapiens) [compound 150]
“+++” (≥50 = +++)
226 (MLYVVPIYL; listed as Homo sapiens) [compound 226]
“++” (≥20% = ++)

Return reported Peptide exchange values for all items listed beneath this line.
1. 258 (ELAERVPAI; listed as Homo sapiens) [compound 258]
2. 183 (FGLDLVTEL; listed as Homo sapiens) [compound 183]
3. 222 (NLIENVQRL; listed as Homo sapiens) [compound 222]
4. 451 (LLLLDTVTMQV; listed as Homo sapiens) [compound 451]

## Output
1. “++” (≥20% = ++)
2. “+++” (≥50 = +++)
3. “++” (≥20% = ++)
4. “++” (≥20% = ++)

Return reported Peptide exchange values for all items listed beneath this line.
1. 178 (ALTEIAFVV; listed as Homo sapiens) [compound 178]
2. 48 (ALAELYEDEV; listed as Homo sapiens) [compound 48]
3. 45 (SLWQDIPDV; listed as Homo sapiens) [compound 45]

## Output
1: “++++” (≥75% = ++++); 2: “+++” (≥50 = +++); 3: “+++” (≥50 = +++)

Return reported Peptide exchange values for all items listed beneath this line.
1. 142 (FLFATPVFI; listed as Homo sapiens) [compound 142]
2. 10 (FLATFPLAAV; listed as Homo sapiens) [compound 10]
3. 238 (YLISFQTHI; listed as Homo sapiens) [compound 238]
4. 449 (KLAEGLDIQL; listed as Homo sapiens) [compound 449]

## Output
["“+++” (≥50 = +++)", "“++++” (≥75% = ++++)", "“+++” (≥50 = +++)", "“+++” (≥50 = +++)"]
